- Tested on: SK-MEL-5 MLANA mRNA qPCR, delta delta Ct, overnight
- ASSAY SUMMARY: inhibitors of MLANA mRNA expression, dose response, cell-based, RT-qPCR, SK-MEL-5, dry powder (AID 651795)
Results filed as inconclusive are left out.
MEASUREMENT KIND: AC40

>>> print(df.to_string())
                         chemical_structure                               measured_on  measurement_kind     result
0  CCN1CCN(C2=C(NC(=O)c3ccccc3)C(=O)c3ccccc3C2=O)CC1  SK-MEL-5 MLANA mRNA qPCR, delta delta Ct, overnight              AC40    1.15 µM
1  NS(=O)(=O)c1ccc(NC2=CC(=O)c3ccccc3C2=O)cc1  SK-MEL-5 MLANA mRNA qPCR, delta delta Ct, overnight              AC40  0.0824 µM
2    NC1=C(NC(=O)c2ccccc2)C(=O)c2ccccc2C1=O  SK-MEL-5 MLANA mRNA qPCR, delta delta Ct, overnight              AC40    1.54 µM
3  CC(C)N1CCN(C2=C(Nc3ccc(F)cc3F)C(=O)c3ccccc3C2=O)CC1  SK-MEL-5 MLANA mRNA qPCR, delta delta Ct, overnight              AC40    3.47 µM
4  CCN1CCN(C2=C(NS(=O)(=O)c3ccc(Br)cc3)C(=O)c3ccccc3C2=O)CC1  SK-MEL-5 MLANA mRNA qPCR, delta delta Ct, overnight              AC40    6.43 µM

* * *

- Tested on: SK-MEL-5 MLANA mRNA qPCR, delta delta Ct, overnight
- ASSAY SUMMARY: inhibitors of MLANA mRNA expression, dose response, cell-based, RT-qPCR, SK-MEL-5, dry powder (AID 651795)
Inconclusive results are not listed.
MEASUREMENT KIND: AC40

>>> df
                          chemical_structure                               measured_on    result
 0  COC1=C(NS(=O)(=O)c2ccc(Br)cc2)C(=O)c2ccccc2C1=O  SK-MEL-5 MLANA mRNA qPCR, delta delta Ct, overnight   9.12 µM
 1  O=C1C(Nc2ccccc2)=C(c2ccccc2)C(=O)c2ccccc21  SK-MEL-5 MLANA mRNA qPCR, delta delta Ct, overnight   7.78 µM
 2  CC(C)N1CCN(C2=C(Nc3ccc(F)cc3)C(=O)c3ccccc3C2=O)CC1  SK-MEL-5 MLANA mRNA qPCR, delta delta Ct, overnight   5.31 µM
 3  CN1CCN(C2=C(Nc3ccc(F)cc3F)C(=O)c3ccccc3C2=O)CC1  SK-MEL-5 MLANA mRNA qPCR, delta delta Ct, overnight   3.45 µM
 4  O=C1C=C(NS(=O)(=O)c2ccc(Br)cc2)C(=O)c2ccccc21  SK-MEL-5 MLANA mRNA qPCR, delta delta Ct, overnight   2.44 µM
 5   O=C(NC1=C(Cl)C(=O)c2ccccc2C1=O)c1ccccc1  SK-MEL-5 MLANA mRNA qPCR, delta delta Ct, overnight  0.227 µM
 6  O=C1C=C(NS(=O)(=O)c2cccs2)C(=O)c2ccccc21  SK-MEL-5 MLANA mRNA qPCR, delta delta Ct, overnight   1.98 µM
 7  COC1=C(NS(=O)(=O)c2cccs2)C(=O)c2ccccc2C1=O  SK-MEL-5 MLANA mRNA qPCR, delta delta Ct, overnight   10.5 µM
 8  O=C1C(NS(=O)(=O)c2cccs2)=C(c2ccccc2)C(=O)c2ccccc21  SK-MEL-5 MLANA mRNA qPCR, delta delta Ct, overnight   10.8 µM
 9  CN1CCN(C2=C(NS(=O)(=O)c3ccc(Br)s3)C(=O)c3ccccc3C2=O)CC1  SK-MEL-5 MLANA mRNA qPCR, delta delta Ct, overnight   2.93 µM
10            C=CCNC1=C(Cl)C(=O)c2ccccc2C1=O  SK-MEL-5 MLANA mRNA qPCR, delta delta Ct, overnight  0.764 µM
11        COC1=C(Nc2ccccc2)C(=O)c2ccccc2C1=O  SK-MEL-5 MLANA mRNA qPCR, delta delta Ct, overnight  0.492 µM
12  O=C1C=C(Nc2ccc([N+](=O)[O-])c(C(F)(F)F)c2)C(=O)c2ccccc21  SK-MEL-5 MLANA mRNA qPCR, delta delta Ct, overnight  0.119 µM

These entries and their values trace back to PubChem BioAssay AID651795.
